Assay: MTT cell viability, WI-38 normal fibroblasts
Format: cell-based
Settings: human, WI-38, 72 h, compound at IC50 concentration obtained for HT-29 cells; read-out: % cell viability ± SD
Protocol: BxPC-3, HT-29, and WI-38 cells were seeded on 96-well plates at a density of approximately 8–10 × 10^3 cells per 100 µL medium/well. Cells were allowed to grow for 24 h in controlled conditions (37 °C; 5% CO2). […] The experimental design included nontreated controls and blanks (wells without cells). […] Afterward, a spectrophotometer (microplate reader Power Wave XS BioTek Instruments, Inc., Winooski, VT, USA) reading at 570 nm was conducted. […]
measure: viability at 72 h (%)
Numbers only here, please. The scale is %.

Input line: Can you look up the measured viability at 72 h of COC(=O)C[C@H](N[C@H](c1ccccc1)c1c(O)ccc2ccccc12)C(=O)OC (mixture of isomers) [MMZ-147CE] for me?
Output line: 66.9

Input line: Proceed to COC(=O)[C@H](Cc1ccccc1)N[C@H](c1ccccc1)c1c(O)ccc2ccccc12 (mixture of isomers) [MMZ-45B]
Output line: 88.2

###

Items are presented alongside their recorded viability at 72 h.
Assay: MTT cell viability, WI-38 normal fibroblasts
Type: cell-based
Settings: human, WI-38 normal fibroblast cells, WI-38, 72 h, compound at IC50 concentration obtained for HT-29 cells; read-out: % cell viability ± SD
Numbers only here, please. The scale is %.

>>> obs_value("COC(=O)[C@@H](N[C@@H](c1ccc(Cl)cc1)c1c(O)ccc2ccccc12)C(C)C (mixture of isomers) [MMZ-39AA]")
64
>>> obs_value("COC(=O)C[C@H](N[C@@H](c1ccccc1)c1c(O)ccc2ccccc12)C(=O)OC (mixture of isomers) [MMZ-147B]")
86.8

Input line: Can you look up the measured viability at 72 h of COC(=O)[C@@H]1CCCN1[C@@H](c1ccccc1)c1c(O)ccc2ccccc12 (mixture of isomers) [MMZ-140C] for me?
Output line: 84.2
